# EXPERIMENTAL_SYSTEM: serotonin receptor (5HT3) (Mus musculus, UniProt P23979)
# Construct: Full-length cDNAs for mosquito (Anopheles gambiae) odorant receptor; expressed in transfected cells
# Sequence (P23979 24-489): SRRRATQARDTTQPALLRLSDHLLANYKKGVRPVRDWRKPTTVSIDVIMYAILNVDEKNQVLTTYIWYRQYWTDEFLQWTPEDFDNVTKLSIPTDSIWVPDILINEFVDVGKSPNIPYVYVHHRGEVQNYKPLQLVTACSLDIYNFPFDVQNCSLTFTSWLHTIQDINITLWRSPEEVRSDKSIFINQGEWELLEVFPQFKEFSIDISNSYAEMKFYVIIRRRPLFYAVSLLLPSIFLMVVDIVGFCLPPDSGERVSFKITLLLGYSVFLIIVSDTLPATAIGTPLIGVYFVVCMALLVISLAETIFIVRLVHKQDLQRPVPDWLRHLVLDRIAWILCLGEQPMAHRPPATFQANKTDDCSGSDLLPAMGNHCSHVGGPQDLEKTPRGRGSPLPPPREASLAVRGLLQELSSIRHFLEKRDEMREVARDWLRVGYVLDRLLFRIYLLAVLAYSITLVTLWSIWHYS
# TEST_PROTOCOL: Ca2+-imaging of stable Flip-In T-Rex cell line 5HT3
# Assay type: cell-based
# TEST_SETTINGS: compound applied at 4 μM; read-out: Percent Inhibition 5HT3
Catalogue of compounds with associated inhibition at 4 µM

Cc1cc(N(C)C2CCCCC2)nc(SCc2cccc(C(=O)N3CCCC3)c2)n1; < 25%
CCOC(=O)C(c1cccc(OC)c1)C1C=CC(NC(=O)c2cccs2)C1 (stereo not drawn); < 25%
Fc1ccccc1/C=N/Nc1nc(N2CCCCC2)nc(N2CCOCC2)n1; 26 to 50%
COCCN(Cc1nccn1Cc1c(F)cccc1Cl)C(=O)CCc1ccccc1; < 25%
COC(=O)C(Cc1ccccc1)NC(=O)C1CC1(c1ccccc1)c1ccccc1 (stereo not drawn); 26 to 50%

Please examine the following record next.
*Q* Consider the compound CCOC(=O)C(c1ccc(OC)c(OC)c1)C1C=CC(NC(=O)c2ccc3c(c2)OCO3)C1 (stereo not drawn) and give its measured inhibition at 4 µM.
*A* < 25%
